Hello, the source for this data is PubChem BioAssay, in case you need it.

# Procedure Summary: small-molecule microarray binders of probe aXIP, primary screen, biochemical, NeuroSMM set, 635/667 nm fluorescence (AID 1119);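 further: probe is the protein aXip251-270 applied at 1 µg/mL to compound-printed slides; binding of probe to printed compounds measured as 667 nm fluorescence plus signal to noise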
# Cond: higher = more signal, called active from +8 up or from −8 down
Reported composite Z-score values for the following compounds.
The response must contain the number and no unit.

{"Compound": "CO[C@@H]1COC(=O)[C@@H](C)COC(=O)[C@@H](C)NC(=O)CC=C[C@@H]1C", "composite Z-score": -0.377}
{"Compound": "CCOC(=O)[C@H](CC(C)C)NC(=O)CCC1CC(OC(=O)NCc2cccc3ccccc23)CC2(CCCC(COC(=O)NCC3CCCCC3)O2)O1 (some centres undefined)", "composite Z-score": 0.526}
{"Compound": "CCc1cc2c(nc1CC)CCN(CCC(C)=NO[C@H](C)c1cn([C@@H]3COC[C@H]3O)nn1)C2", "composite Z-score": 0.577}

// moving on: another record for composite Z-score
Kindly note the recorded composite Z-score for `CC(C)=CCCC(C)=CCON=C1C[C@@H](O)[C@@H](O)[C@@H]2[C@@H]3C(=O)N(c4cccc(Oc5ccccc5)c4)C(=O)[C@@H]3CC[C@@H]12` , which is -0.174
